# System name: T1, 4H338-bN
# T1 chain: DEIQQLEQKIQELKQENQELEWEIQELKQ
# Test: two-hybrid library CCNG1;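 note: natural log of median RNA to DNA barcode read ratio; higher means stronger binding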
Endpoint name: interaction score

# annotated cases, reported interaction score shown
Binder: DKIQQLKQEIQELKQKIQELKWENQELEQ [4H2667-bN]
Endpoint name: interaction score
Observed value: 0.105

Binder: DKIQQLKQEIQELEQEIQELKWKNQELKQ [4H2576-bN]
Endpoint name: interaction score
Observed value: 0.787

(I) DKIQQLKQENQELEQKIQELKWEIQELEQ [4H2729-bN]
(II) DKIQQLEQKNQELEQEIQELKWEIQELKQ [4H2442-bN]
### Prompt Among I and II , whose measured interaction score is the smaller figure? Your answer should be the label attached to the chosen record.
### Response I
(I: -1.12, II: -0.476)
